# Assay explanation: Size and charge of LNPs by DLS (Malvern NanoZS)
# Type: physicochemical
# Setup conditions: mRNA(GFP) LNPs, total lipid 3.75 mM, N/P 6
# PDI listing for each entry below
Just the number, please, no unit attached.

Request: Which PDI reading was recorded for the compound CCCCCCC/C=C\CCCCCCCCNC(=O)CCC(NC(=O)CCCN(C)C)C(=O)NCCCCCCCC/C=C\CCCCCCCC (stereo not shown) [II] ?
Result: 0.2

Request: I have this compound here, CCCCC/C=C\C/C=C\CCCCCCCCOC(=O)CCC(NC(=O)CN(C)C)C(=O)OCCCCCCCC/C=C\C/C=C\CCCCC (stereo not shown) [X] , and I need its recorded PDI.
Result: 0.109

Request: Please report the recorded PDI for CCCCC/C=C\C/C=C\CCCCCCCCNC(=O)CCC(NC(=O)CCCN(C)C)C(=O)NCCCCCCCC/C=C\C/C=C\CCCCC (stereo not shown) [XIV] .
Result: 0.186

New cases:
Request: Give its PDI value. Item: CCCCCCCC/C=C\CCCCCCCCNC(=O)CCC(NC(=O)CCC(=O)NCCSSCCNC(=O)CN(C)C)C(=O)NCCCCCCCC/C=C\CCCCCCCC (stereo not shown) [VI]
Result: 0.344
